tested-target: Hematopoietic prostaglandin D synthase (Homo sapiens)
Sequence (O60760 whole entry): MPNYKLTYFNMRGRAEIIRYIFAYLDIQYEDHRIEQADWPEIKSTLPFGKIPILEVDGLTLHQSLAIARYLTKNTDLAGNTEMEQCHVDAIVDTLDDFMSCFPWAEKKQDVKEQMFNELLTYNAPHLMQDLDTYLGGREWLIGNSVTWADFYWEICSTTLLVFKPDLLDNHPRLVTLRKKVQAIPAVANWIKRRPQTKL
test-protocol: Inhibition of HPGDS
quantity-name: IC50 (nM)

{"molecular-string": "O=C(NC1CCN(CC(F)(F)F)CC1)c1ccc(-c2ccccc2)nc1", "tested-target": "Hematopoietic prostaglandin D synthase (Homo sapiens)", "quantity-name": "IC50", "relation": "=", "reported-result": 0.2}
{"molecular-string": "COc1ccccc1N1CCN(C(=O)c2ccc[nH]2)CC1", "tested-target": "Hematopoietic prostaglandin D synthase (Homo sapiens)", "quantity-name": "IC50", "relation": "=", "reported-result": 6900}
{"molecular-string": "O=C(Nc1ccc(N2CCN(C(=O)N3CCOCC3)CC2)cc1)c1cnc(Oc2ccccc2)nc1", "tested-target": "Hematopoietic prostaglandin D synthase (Homo sapiens)", "quantity-name": "IC50", "relation": "=", "reported-result": 280}
{"molecular-string": "Cc1nc(-c2ccccc2)sc1C(=O)Nc1ccc(S(N)(=O)=O)cc1", "tested-target": "Hematopoietic prostaglandin D synthase (Homo sapiens)", "quantity-name": "IC50", "relation": "<", "reported-result": 1}

* * *

Below, each entry is listed alongside its reported remaining at 0.5 h.
test-protocol: Metabolic stability in human liver microsomes assessed as compound remaining after 30 mins
Assay type: ADME, Microsome
conditions-used: liver microsomes, read-out: Stability
quantity-name: remaining at 0.5 h (%)

{"molecular-string": "O=C(NCCN1CCOCC1)c1ccc(-c2c(O)ccc3ccccc23)cc1", "reported-result": 94}
{"molecular-string": "Cc1cc2ccccc2c(-c2ccc(C(=O)NCCN3CCOCC3)cc2)n1", "reported-result": 76}
{"molecular-string": "O=C(NCCN1CCOCC1)c1ccc(-c2ccccn2)cc1", "reported-result": 20}
